- target.desc: V600E full-length B-Raf (Homo sapiens, UniProt P15056, V600E)
- Construct: 1 μM FSBA-MEK and 20 nM V600E full-length B-Raf; made in house; host or cells: sf9 insect cells (baculovirus)
- Sequence (P15056 whole entry V600E): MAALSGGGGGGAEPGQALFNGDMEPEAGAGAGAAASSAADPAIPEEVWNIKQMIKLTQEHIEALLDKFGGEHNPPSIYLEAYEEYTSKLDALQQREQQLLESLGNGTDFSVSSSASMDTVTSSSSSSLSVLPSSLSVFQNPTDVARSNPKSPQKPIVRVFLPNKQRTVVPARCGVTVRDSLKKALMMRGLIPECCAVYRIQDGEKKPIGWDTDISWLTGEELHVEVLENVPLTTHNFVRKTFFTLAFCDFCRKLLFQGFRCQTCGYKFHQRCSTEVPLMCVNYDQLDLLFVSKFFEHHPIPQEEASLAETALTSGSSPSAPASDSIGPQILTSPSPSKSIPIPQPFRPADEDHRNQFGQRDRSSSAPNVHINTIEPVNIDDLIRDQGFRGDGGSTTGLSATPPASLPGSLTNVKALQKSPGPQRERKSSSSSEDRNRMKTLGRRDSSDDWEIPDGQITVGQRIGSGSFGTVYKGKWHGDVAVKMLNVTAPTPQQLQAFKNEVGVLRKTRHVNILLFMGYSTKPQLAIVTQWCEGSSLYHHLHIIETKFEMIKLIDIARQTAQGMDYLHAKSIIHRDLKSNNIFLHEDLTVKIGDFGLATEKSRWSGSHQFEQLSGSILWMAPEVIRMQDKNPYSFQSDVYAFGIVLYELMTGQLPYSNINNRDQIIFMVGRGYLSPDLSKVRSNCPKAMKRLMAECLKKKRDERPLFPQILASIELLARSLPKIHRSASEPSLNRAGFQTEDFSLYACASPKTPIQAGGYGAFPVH
- assay.notes: B-Raf IC50 Assay (B-RAF V600E inhibition assay, Example A)
- Assay type: biochemical
- protocol.conditions: incorporation of radio labeled phosphate from [γ-33P]ATP into FSBA-modified wild-type MEK; 4 μM ATP, 20 nM V600E full-length B-Raf, 60-minute incubation, 22° C.; read-out: BRAF V600E IC50
- From the text: Determining the activity of Raf in the sample is possible by a number of direct and indirect detection methods (US 2004/0082014). Activity of human recombinant B-Raf protein may be assessed in vitro by assay of the incorporation of radio labeled phosphate to recombinant MAP kinase (MEK), a known physiologic substrate of B-Raf, according to US 2004/0127496 and WO 03/022840. […]
experimental.readout: IC50 (nM)

P. Nc1ncnc2c(C(=O)Nc3c(Cl)ccc(NS(=O)(=O)CCCF)c3F)nsc12 [Example 32]
Q. CC(C)CS(=O)(=O)Nc1ccc(Cl)c(NC(=O)c2csc3c(N)ncnc23)c1F [Example 22]
Ask | Param pair: P , Q . Output: the one whose IC50 is numerically greater. Identify your selection by its label.
Reply | Q
(Q: 2 nM, P: 0.18 nM)

----------
Catalogue of IC50 readings, one per entry.
- target.desc: V600E full-length B-Raf (Homo sapiens, UniProt P15056, V600E)
- Construct: 1 μM FSBA-MEK and 20 nM V600E full-length B-Raf; made in house; host or cells: sf9 insect cells (baculovirus)
- assay.notes: B-Raf IC50 Assay (B-RAF V600E inhibition assay, Example A)
- Assay type: biochemical
- protocol.conditions: B-Raf V600E assay of Example A: less than about 1 μM; read-out: IC50

compound	target.desc	experimental.readout	result
CCCC(C)Nc1ncnc2c(C(=O)Nc3c(F)ccc(NS(=O)(=O)CCC)c3F)csc12 (stereo not shown)	V600E full-length B-Raf (Homo sapiens, UniProt P15056, V600E)	IC50	< 1000 nM
CCCS(=O)(=O)Nc1ccc(F)c(NC(=O)c2csc3c(NCC)ncnc23)c1F	V600E full-length B-Raf (Homo sapiens, UniProt P15056, V600E)	IC50	< 1000 nM
CCCS(=O)(=O)Nc1cc(Cl)cc(NC(=O)c2csc3c(N)ncnc23)c1F	V600E full-length B-Raf (Homo sapiens, UniProt P15056, V600E)	IC50	< 1000 nM
CCCS(=O)(=O)Nc1ccc(Cl)c(NC(=O)c2csc3c(NC4CCOC4)ncnc23)c1Cl (stereo not shown)	V600E full-length B-Raf (Homo sapiens, UniProt P15056, V600E)	IC50	< 1000 nM
CCCS(=O)(=O)Nc1ccc(F)c(NC(=O)c2c[nH]c3c(NC)ncnc23)c1F	V600E full-length B-Raf (Homo sapiens, UniProt P15056, V600E)	IC50	< 1000 nM

Ask | Recorded IC50 for CCCS(=O)(=O)Nc1cc(F)cc(NC(=O)c2csc3c(N)ncnc23)c1Cl , please?
Reply | < 1000 nM

Ask | Recorded IC50 for CC(C)CS(=O)(=O)Nc1ccc(F)c(NC(=O)c2csc3c(N)ncnc23)c1F , please?
Reply | < 1000 nM

Ask | Recorded IC50 for CCCS(=O)(=O)Nc1ccc(F)c(NC(=O)c2c[nH]c3c(N)ncnc23)c1F , please?
Reply | < 1000 nM

Ask | Recorded IC50 for CCCS(=O)(=O)Nc1ccc(F)c(NC(=O)c2c[nH]c3cncnc23)c1F , please?
Reply | < 1000 nM

Ask | Recorded IC50 for CCCS(=O)(=O)Nc1ccc(F)c(NC(=O)c2csc3c(Nc4ccccn4)ncnc23)c1F , please?
Reply | < 1000 nM

----------
- target.desc: V600E full-length B-Raf (Homo sapiens, UniProt P15056, V600E)
- Construct: 1 μM FSBA-MEK and 20 nM V600E full-length B-Raf; made in house; host or cells: sf9 insect cells (baculovirus)
- assay.notes: B-Raf IC50 Assay (B-RAF V600E inhibition assay, Example A)
- Type: biochemical
- protocol.conditions: incorporation of radio labeled phosphate from [γ-33P]ATP into FSBA-modified wild-type MEK; 4 μM ATP, 20 nM V600E full-length B-Raf, 60-minute incubation, 22° C.; read-out: BRAF V600E IC50
pIC50: −log10 of the molar value.
experimental.readout: pIC50

test.smiles	result.number
Nc1ncnc2c(C(=O)Nc3c(F)ccc(NS(=O)(=O)N4CCCC4)c3F)csc12	7.94
CCCS(=O)(=O)Nc1cc(F)c(F)c(NC(=O)c2csc3c(NN4CCOCC4)ncnc23)c1F	8.29
Nc1ncnc2c(C(=O)Nc3c(F)ccc(NS(=O)(=O)c4ccccc4)c3F)csc12	9.05
CCCS(=O)(=O)Nc1cc(F)c(F)c(NC(=O)c2csc3c(NC4COC4)ncnc23)c1F	7.82
CCCS(=O)(=O)Nc1ccc(F)c(NC(=O)c2csc3c(NCC(F)F)ncnc23)c1F	7.58
CCCS(=O)(=O)Nc1ccc(F)c(NC(=O)c2c[nH]c3c(NOC)ncnc23)c1F	6.95

a. CCCS(=O)(=O)Nc1ccc(F)c(NC(=O)c2sc(C)c3c(N)ncnc23)c1F
b. CCCS(=O)(=O)Nc1cc(F)c(F)c(NC(=O)c2csc3c(NCC)ncnc23)c1F
Ask | Which record shows the lower pIC50: the first, a , or the second, b ? Identify your selection by its label.
Reply | b
(b: 8.29, a: 8.52)

----------
- target.desc: V600E full-length B-Raf (Homo sapiens, UniProt P15056, V600E)
- Construct: 1 μM FSBA-MEK and 20 nM V600E full-length B-Raf; made in house; host or cells: sf9 insect cells (baculovirus)
- assay.notes: B-Raf IC50 Assay (B-RAF V600E inhibition assay, Example A)
- Assay type: biochemical
- protocol.conditions: incorporation of radio labeled phosphate from [γ-33P]ATP into FSBA-modified wild-type MEK; 4 μM ATP, 20 nM V600E full-length B-Raf, 60-minute incubation, 22° C.; read-out: BRAF V600E IC50
pIC50: −log10 of the molar value.
experimental.readout: pIC50

Solved cases below.
compound	pIC50
CCCS(=O)(=O)Nc1cc(F)c(F)c(NC(=O)c2csc3c(NC4CCOC4)ncnc23)c1F (centres unmarked) [Example 88]	6.92
CCNc1ncnc2c(C(=O)Nc3c(F)c(F)cc(NS(=O)(=O)CCCF)c3F)csc12 [Example 98]	8.67
CCCS(=O)(=O)Nc1ccc(F)c(NC(=O)c2csc3c(NC4CC4)ncnc23)c1F [Example 47]	8.33
CCCS(=O)(=O)Nc1cccc(NC(=O)c2csc3c(N)ncnc23)c1F [Example 26]	7.70
CCCS(=O)(=O)Nc1cc(F)c(F)c(NC(=O)c2csc3c(NCCF)ncnc23)c1F [Example 89]	8.43
CCCS(=O)(=O)Nc1ccc(F)c(NC(=O)c2cn(C)c3c(N)ncnc23)c1F [Example 1]	7.74
CCCS(=O)(=O)Nc1ccc(F)c(NC(=O)c2csc3c(NCC4CC4)ncnc23)c1F [Example 56]	7.12
CCCS(=O)(=O)Nc1ccc(F)c(NC(=O)c2c[nH]c3c(C)ncnc23)c1F [Example 106]	6.72
CCCS(=O)(=O)Nc1ccc(F)c(NC(=O)c2csc3c(NC(C)C)ncnc23)c1F [Example 50]	7.44
O=C(Nc1c(F)ccc(NS(=O)(=O)CCCF)c1F)c1csc2c(NC3CC3)ncnc12 [Example 64]	8.96

a. CCCNc1ncnc2c(C(=O)Nc3c(F)ccc(NS(=O)(=O)CCC)c3Cl)csc12 [Example 45]
b. CCCS(=O)(=O)Nc1ccc(Cl)c(NC(=O)c2csc3c(NC4CCC(F)(F)CC4)ncnc23)c1Cl [Example 80]
Ask | Which record shows the lower pIC50: the first, a , or the second, b ? Identify your selection by its label.
Reply | b

I. CCCS(=O)(=O)Nc1ccc(F)c(NC(=O)c2snc3c(NCC)ncnc23)c1F [Example 35]
II. CCCS(=O)(=O)Nc1cc(F)c(F)c(NC(=O)c2csc3c(NC)ncnc23)c1F [Example 92]
III. CCCS(=O)(=O)Nc1ccc(Cl)c(NC(=O)c2csc3c(NN4CCOCC4)ncnc23)c1Cl [Example 67]
Ask | rank_up(items): orders items by reported pIC50 in ascending numerical order. Give the labels in the order requested.
Reply | I, II, III
(I: 6.98, II: 7.88, III: 9.70)

P. CCS(=O)(=O)Nc1ccc(F)c(NC(=O)c2csc3c(N)ncnc23)c1F [Example 2]
Q. CCCS(=O)(=O)Nc1ccc(F)c(NC(=O)c2c[nH]c3c(NC4CC4)ncnc23)c1F [Example 104]
Ask | Param pair: P , Q . Output: the one whose pIC50 is numerically greater. Identify your selection by its label.
Reply | P
(P: 7.92, Q: 7.32)
